experiment: Coupled enzyme assay (ADH, with and without MSAD): hydratase and hydratase/decarboxylase activity and product profile of Cg10062 and variants; assay type: biochemical; settings: from Cg10062 activity in the presence and absence of MSAD; * from non-enzymatic decarboxylation of malonate semialdehyde
measured.attribute: Product Ratio (%) acetaldehyde

Problem: Tell me Product Ratio (%) acetaldehyde reported for Cg10062(E114D-Y103F): Cg10062 double variant E114D-Y103F, SEQ ID NO: 33 and 71 (protein, Cg10062(E114D-Y103F) from Corynebacterium glutamicum codon-optimized for Escherichia coli) PTYTCWSQRIRISREAKQRIAEAITDAHHELAHAPKYLVQVIFNEVEPDSYFIAAQSASENHIWVQATIRSGRTEKQKEELLLRLTQEIALILGIPNEEVWVFITEIPGSNMTDYGRLLMEPGEEEKWFNSLPEGLRERLTELEGSSE
Result: <1* %

Reference for the values: patent US20240043883A1
